molecules and their reported log10 BCF
Conditions: fish
Form field (numeric): enter value without unit.

Illustrative cases are given below, each with its answer.
Brc1ccc(Oc2ccc(Br)c(Br)c2)c(Br)c1 : 6.05
Nc1ccc(Cc2ccc(N)cc2)cc1 : 1.18
C=CCCl : 0.7
C=Cc1ccncc1 : 1.86
C=Cc1ccc(CC)cc1 : 2.69
C=C1C2CCC(C2)C1(C)C (stereo unspecified) : 2.98
CC(C)C(O)C(C)(C)CO (stereo unspecified) : 0
Clc1ccccn1 : 1.28
OCc1cccc(Cl)c1 : 1.29
c1cc2c3c(cccc3c1)CC2 : 2.88

[Q] Given `Clc1ccc(Cl)c(Cl)c1` , state its recorded log10 BCF.
[A] 3.32

[Q] Thanks! And `CNC(=O)Oc1cccc2ccccc12` ?
[A] 0.95

[Q] Consider next the molecule `Cc1ccccc1[N+](=O)[O-]` in the same way.
[A] 1.26

[Q] Similarly, `O=NN(c1ccccc1)c1ccccc1` ?
[A] 1.33

[Q] And what about the molecule `Clc1c(Cl)c(Cl)c2c(oc3c(Cl)c(Cl)c(Cl)c(Cl)c32)c1Cl` ?
[A] 2.89

[Q] # iterate: `CCCCOC(=O)c1ccccc1C(=O)OCc1ccccc1`
[A] 1.21

[Q] Next molecule: `Cc1c([N+](=O)[O-])c(C)c([N+](=O)[O-])c(C(C)(C)C)c1[N+](=O)[O-]`
[A] 3.61

[Q] Same question for `Oc1cc(Cl)ccc1Cl` please.
[A] 1.01

[Q] Moving on to `S=C1NCCN1`
[A] 0.26

[Q] Can you check `Nc1cccc2cccc(N)c12` next?
[A] 0.8

[Q] What do we get for `Cc1c(Cl)cccc1[N+](=O)[O-]` ?
[A] 1.99

[Q] Query `Oc1ccc(Cl)cc1Cc1cc(Cl)ccc1O` next
[A] 2.28

[Q] Follow-up entry: `C1CCCCCCCCCCC1`
[A] 3.91

[Q] Follow-up entry: `CCN(CC)C(=O)c1cccc(C)c1`
[A] 0.38

[Q] Next entry: `COc1cccc([N+](=O)[O-])c1`
[A] 0.78

[Q] And what about the molecule `CC(C)OC(=O)C(C(=O)OC(C)C)=C1SCCS1` ?
[A] 1.57

[Q] // query: `Nc1nc(N)nc(N)n1`
[A] 0.58

[Q] What about `NCCNCCO` ?
[A] 0.46

[Q] Can you handle `COc1ccc(N)c([N+](=O)[O-])c1` next?
[A] 0.85

[Q] For CC(CCl)OC(C)CCl (stereo unspecified) then?
[A] 1.08

[Q] Then this molecule: `CC(C)Oc1cc(-n2nc(C(C)(C)C)oc2=O)c(Cl)cc1Cl`
[A] 3.08

[Q] Likewise for `Brc1cc(Br)c(Br)c(Oc2c(Br)c(Br)c(Br)c(Br)c2Br)c1Br` ?
[A] 5.57

[Q] Next molecule: `O=C1c2ccccc2C(=O)c2c(O)cccc21`
[A] 2.25

[Q] Now the molecule `c1ccoc1`
[A] 0.7

[Q] Entry `Nc1ccccc1-c1ccccc1` please
[A] 1.41

====

// values below are reported melting point
Numbers only here, please. The scale is °C.

[Q] State the recorded melting point for this entry: COC1[C@@H](O[C@@H]2O[C@H](C)[C@@H](O[C@H]3C[C@@](C)(O)[C@H](OC(=O)CC(C)C)[C@H](C)O3)[C@H](N(C)C)[C@H]2O)[C@@H](CC=O)C[C@@H](C)[C@@H](O)C=CC=CC[C@@H](C)OC(=O)C[C@H]1OC(C)=O (stereo not given in full)
[A] 132

[Q] Moving on to `CC(C)c1cccc(O)c1O`
[A] 47

[Q] What would you report for `c1cnc2ncncc2n1` ?
[A] 140

[Q] Next up: `ClCCBr`
[A] -16.7

[Q] Input `c1cc2cccc3c4cccc5cccc(c(c1)c23)c54`
[A] 274

[Q] Request: `CCOC(=O)C(C(=O)OCC)c1ccccc1`
[A] 16.5

[Q] Try this molecule too: `CCCCCCCCCCCCCCCC(=O)OCCOC(=O)CCCCCCCCCCCCCCC`
[A] 72

[Q] What do you get for `CC(=O)OC[C@H]1O[C@@](COC(C)=O)(O[C@H]2O[C@H](COC(C)=O)[C@@H](OC(C)=O)[C@H](OC(C)=O)[C@H]2OC(C)=O)[C@@H](OC(C)=O)[C@@H]1OC(C)=O` ?
[A] 86.5

[Q] Entry to check: `CCCCCCCCCCCCCCCO`
[A] 45.5

[Q] Next entry: `CC(C)c1ccc(NC(=O)N(C)C)cc1`
[A] 158

====

melting point vs 60 °C: less than gives condition met; not less than gives condition not met.

CC(C)NC(C)C : condition met

[Q] Is melting point strictly under 60 °C for the entry `C1CCC(CCCCCC2CCCCC2)CC1` ?
[A] condition met

[Q] // repeat for `Cc1cccc([N+](=O)[O-])c1` and report
[A] condition met

[Q] Would you kindly repeat that for `CCCCCC[C@@H](O)C/C=C\CCCCCCCC(=O)O` ?
[A] condition met

[Q] Next molecule: `O=C1C=CCCC1`
[A] condition met

[Q] Same thing, different molecule: `COc1ccc2c(c1)c(CC(=O)O)c(C)n2C(=O)c1ccc(Cl)cc1`
[A] condition not met

[Q] How about `C[C@@H]([C@H](O)c1ccccc1)N(C)C` ?
[A] condition not met

[Q] Entry `COc1ccc2cc1Oc1ccc(cc1)C[C@H]1c3cc(c(OC)cc3CCN1C)Oc1c(OC)c(OC)cc3c1[C@H](C2)N(C)CC3` please
[A] condition not met

[Q] Another molecule to check: `N#CCC#N`
[A] condition met

====

Parameter melting point: see the listing below.
Give your result in °C as a bare value.

Guide cases for melting point, answers given:
CCCCNCCO : -2
Cc1ccc(Cc2ccccc2)cc1 : -30
Nc1ccc(Sc2ccc([N+](=O)[O-])cc2)cc1 : 144
Nc1ccc([N+](=O)[O-])cc1 : 146
On1nnc2ccccc21 : 158

[Q] // lookup melting point for `O=[N+]([O-])c1ccc(O[C@@H]2O[C@H](CO)[C@H](O)[C@H](O)[C@H]2O)cc1`
[A] 189

[Q] Now give it for `Cc1cc(Cl)cc([N+](=O)[O-])c1` too.
[A] 61

[Q] Same again, this time with `CCCC(C)=O`
[A] -76.9

[Q] Would you kindly repeat that for CC(=O)OC(C)CC(C)C (stereo not drawn) ?
[A] -64

====

parameter: boiling point (°C)
Just the number in °C, nothing appended.

O=C(Cl)c1ccc(Cl)cc1 : 222
O=[N+]([O-])OCC(CO[N+](=O)[O-])O[N+](=O)[O-] : 250
CC=CC(OCC)OCC : 148
C=C(C)c1ccccc1 : 165
Fc1ccccc1-c1ccccc1 : 248
COCC(F)(F)C(F)C(F)(F)F (configuration not stated) : 87.5

[Q] Item `C=CCCC#N` has what recorded boiling point?
[A] 140

[Q] Would you kindly repeat that for `ClCCOCCOCCCl` ?
[A] 232

[Q] Repeat with `Cc1c(F)cccc1Cl`
[A] 154

[Q] Also `C/C=C\C` ?
[A] 2.25

[Q] Cool, now `CCC(CC)=NO`
[A] 168

[Q] And then `Nc1cccc(N)c1` , what is it?
[A] 285

[Q] Here is the next compound: CC(Br)C(C)Br (configuration not stated)
[A] 161

[Q] What do we get for `CN1C(=O)c2ccc([N+](=O)[O-])cc2C1=O` ?
[A] 361

[Q] // query: `CC(C)=CCCC=C(C)C`
[A] 166

[Q] Please do the same for `C1=CCCCC1` as well.
[A] 82.9

[Q] Same for `COC(=O)c1ccccc1C(=O)OC`
[A] 284

====

# key: entry, value: log10 vapour pressure (mmHg)
Simply state the number, no unit and no words.

O=CF : 3.46
O=C(OC(=O)C(Cl)(Cl)Cl)C(Cl)(Cl)Cl : -0.908
O=C1c2ccccc2C(=O)c2c(O)cccc21 : -6.68

[Q] Report log10 vapour pressure (mmHg) for `CCCCCCCCCCCCCCCBr` please.
[A] -3.83

[Q] Also, `c1ccc(CCc2ccccc2)cc1` please.
[A] -2.14

[Q] Also `CCBr` , if possible.
[A] 2.67

[Q] Cool, now `CCCCC/C=C\C/C=C\CCCCCCCC(=O)OC`
[A] -5.44

[Q] Query CCC(C)c1ccc(O)cc1 (configuration not stated) next
[A] -1.43

[Q] Entry to check: `C=CCSCC=C`
[A] 0.965

[Q] `CCCC#CCCC` ?
[A] 0.985

[Q] What do we get for `CNCCO` ?
[A] 0.0346

====

parameter: melting point (°C)
The figure you give is taken to be in °C; do not add the unit.

Solved entries:
c1cc(-c2ccncc2)ccn1 : 111
C/C=C/Cl : -117
CNC(=O)ON=CC(C)(C)SC : 99
CCCC(C)(C)CC : -126
COC(=O)c1ccccc1O[C@@H]1O[C@H](CO[C@@H]2OC[C@@H](O)[C@H](O)[C@H]2O)[C@@H](O)[C@H](O)[C@H]1O : 180

[Q] Need melting point, item CN1CCC(CN2c3ccccc3Sc3ccccc32)C1 (stereo unspecified)
[A] 87.5

[Q] Cool, now `CCCCCCCCCCCCCCCCCCCC(=O)OCC`
[A] 50

[Q] Could you do the same for N#CCCC(Br)(C#N)CBr (stereo unspecified) , please?
[A] 52
